FYI, the data here is from ChEMBL document CHEMBL1131475.

- assay summary: in vivo
- condition set: rat, plasma, po
quantity name: Tmax (min)

The cases that follow already have their Tmax on record.
compound: CC(C)C(NC(=O)OCc1cnccn1)C(=O)N[C@@H](Cc1ccccc1)C[C@H](O)[C@H](Cc1ccccc1)NC(=O)OCc1cccnc1 (stereo partly specified)
Tmax / min: 12
--
compound: CCc1nc(CN(C)C(=O)NC(C(=O)N[C@@H](Cc2ccccc2)C[C@H](O)[C@H](Cc2ccccc2)NC(=O)OCc2cccnc2)C(C)C)cs1 (stereo partly specified)
Tmax / min: 15
--
compound: CC(C)C(NC(=O)N(C)Cc1ccccn1)C(=O)N[C@@H](Cc1ccccc1)[C@@H](O)C[C@H](Cc1ccccc1)NC(=O)OCc1cncnc1 (stereo partly specified)
Tmax / min: 12
--
compound: CC(C)c1nc(COC(=O)NC(C(=O)N[C@@H](Cc2ccccc2)[C@@H](O)C[C@H](Cc2ccccc2)NC(=O)OCc2cccnc2)C(C)C)cs1 (stereo partly specified)
Tmax / min: 15
--
compound: CC(C)C(NC(=O)OCc1cncc(N)c1)C(=O)N[C@@H](Cc1ccccc1)C[C@H](O)[C@H](Cc1ccccc1)NC(=O)OCc1cccnc1 (stereo partly specified)
Tmax / min: 6

[1] CC(C)C(NC(=O)N(C)Cc1cscn1)C(=O)N[C@@H](Cc1ccccc1)C[C@H](O)[C@H](Cc1ccccc1)NC(=O)OCc1cccnc1 (stereo partly specified)
[2] CC(C)c1cccc(COC(=O)NC(C(=O)N[C@@H](Cc2ccccc2)C[C@H](O)[C@H](Cc2ccccc2)NC(=O)OCc2cccnc2)C(C)C)n1 (stereo partly specified)
[3] CC(NC(=O)OCc1csc(C(C)C)n1)C(=O)N[C@@H](Cc1ccccc1)C[C@H](O)[C@H](Cc1ccccc1)NC(=O)OCc1cncs1 (stereo partly specified)
[4] CC(C)c1nc(CN(C)C(=O)NC(C(=O)N[C@@H](Cc2ccccc2)[C@@H](O)C[C@H](Cc2ccccc2)NC(=O)OCc2cncs2)C(C)C)cs1 (stereo partly specified)
Returns the items ordered by Tmax, from maximum to minimum. Lab note: record answer as labels in requested order.
4, 3, 2, 1
(4: 105 min, 3: 24 min, 2: 15 min, 1: 6 min)

----------
- assay summary: in vivo
- condition set: rat, plasma, iv
quantity name: half-life (min)

compound: CC(C)C(NC(=O)OCc1nccs1)C(=O)N[C@@H](Cc1ccccc1)C[C@H](O)[C@H](Cc1ccccc1)NC(=O)OCc1cccnc1 (stereo partly drawn)
test value: 39.6

[A] CC(C)C(NC(=O)N(C)Cc1cscn1)C(=O)N[C@@H](Cc1ccccc1)[C@@H](O)C[C@H](Cc1ccccc1)NC(=O)OCc1cccnc1 (stereo partly drawn)
[B] CC(C)c1nc(CN(C)C(=O)NC(C(=O)N[C@@H](Cc2ccccc2)C[C@H](O)[C@H](Cc2ccccc2)NC(=O)OCc2ccno2)C(C)C)cs1 (stereo partly drawn)
Kindly identify the item with the lower half-life figure among these two: A and B Please reply using the label of the selected record.
B
(B: 35.4 min, A: 84 min)

[I] Cc1cnc(COC(=O)NC(C(=O)N[C@@H](Cc2ccccc2)[C@@H](O)C[C@H](Cc2ccccc2)NC(=O)OCc2cccnc2)C(C)C)cn1 (stereo partly drawn)
[II] CCc1cccc(CN(C)C(=O)NC(C(=O)N[C@@H](Cc2ccccc2)[C@@H](O)C[C@H](Cc2ccccc2)NC(=O)OCc2cccnc2)C(C)C)n1 (stereo partly drawn)
[III] COCc1ncc(COC(=O)NC(C(=O)N[C@@H](Cc2ccccc2)C[C@H](O)[C@H](Cc2ccccc2)NC(=O)OCc2cccnc2)C(C)C)s1 (stereo partly drawn)
Arrange items by their half-life values in increasing order. Lab note: final answer is the ordered label list.
I, III, II
(I: 10.8 min, III: 16.2 min, II: 31.2 min)

----------
- assay summary: Oral bioavailability in rat
- Format: ADME, organism-based
- condition set: in vivo
quantity name: bioavailability (%)

molecule: CC(C)c1nc(CN(C)C(=O)NCCC(=O)N[C@@H](Cc2ccccc2)C[C@H](O)[C@H](Cc2ccccc2)NC(=O)OCc2cncs2)cs1
bioavailability / %: 7.1
--
molecule: CCc1nc(CN(C)C(=O)NC(C(=O)N[C@@H](Cc2ccccc2)C[C@H](O)[C@H](Cc2ccccc2)NC(=O)OCc2cncs2)C(C)C)co1 (stereo not given in full)
bioavailability / %: 57
--
molecule: CC(C)c1nc(COC(=O)NC(C(=O)N[C@@H](Cc2ccccc2)[C@@H](O)C[C@H](Cc2ccccc2)NC(=O)OCc2cccnc2)C(C)C)cs1 (stereo not given in full)
bioavailability / %: 3
--
molecule: Cc1ccc(COC(=O)NC(C(=O)N[C@@H](Cc2ccccc2)C[C@H](O)[C@H](Cc2ccccc2)NC(=O)OCc2cccnc2)C(C)C)cn1 (stereo not given in full)
bioavailability / %: 6.4
--
molecule: Cc1ncc(COC(=O)NC(C(=O)N[C@@H](Cc2ccccc2)C[C@H](O)[C@H](Cc2ccccc2)NC(=O)OCc2cccnc2)C(C)C)nc1C (stereo not given in full)
bioavailability / %: 10

[a] COc1ccc(CN(C)C(=O)NC(C(=O)N[C@@H](Cc2ccccc2)C[C@H](O)[C@H](Cc2ccccc2)NC(=O)OCc2cccnc2)C(C)C)cn1 (stereo not given in full)
[b] CC(C)C(NC(=O)OCc1cncc(N)c1)C(=O)N[C@@H](Cc1ccccc1)C[C@H](O)[C@H](Cc1ccccc1)NC(=O)OCc1cccnc1 (stereo not given in full)
Between the entries labelled a and b , which has a larger bioavailability value on record? I would appreciate it if you answered with the label of your choice.
a

[I] CC(C)C(NC(=O)N(C)Cc1ccccn1)C(=O)N[C@@H](Cc1ccccc1)[C@@H](O)C[C@H](Cc1ccccc1)NC(=O)OCc1ccoc1 (stereo not given in full)
[II] Cc1ncc(COC(=O)N[C@@H](Cc2ccccc2)C[C@H](O)[C@H](Cc2ccccc2)NC(=O)C(NC(=O)N(C)Cc2csc(C(C)C)n2)C(C)C)s1 (stereo not given in full)
Returns: the label, I or II , whose recorded bioavailability is the lower number. // return label of chosen record
I

[1] CC(C)c1nc(CCC(=O)NC(C(=O)N[C@@H](Cc2ccccc2)C[C@H](O)[C@H](Cc2ccccc2)NC(=O)OCc2cccnc2)C(C)C)cs1 (stereo not given in full)
[2] CC(C)c1nc(COC(=O)NC(C(=O)N[C@@H](Cc2ccccc2)C[C@H](O)[C@H](Cc2ccccc2)NC(=O)OCc2cccnc2)C(C)C)cs1 (stereo not given in full)
// pick min by bioavailability: 1 , 2 Mark your answer with the label of the selected entry.
2
(2: 1.6%, 1: 3.4%)

[1] CC(C)C(NC(=O)OCc1cnccn1)C(=O)N[C@@H](Cc1ccccc1)[C@@H](O)C[C@H](Cc1ccccc1)NC(=O)OCc1cccnc1 (stereo not given in full)
[2] CC(NC(=O)OCc1csc(C(C)C)n1)C(=O)N[C@@H](Cc1ccccc1)C[C@H](O)[C@H](Cc1ccccc1)NC(=O)OCc1cncs1 (stereo not given in full)
Endpoint returns the identifier whose bioavailability is numerically larger, either 1 or 2 . Which one? Tell me its label.
2
(2: 19%, 1: 4.5%)

----------
- assay summary: in vivo
- condition set: rat, plasma, iv
quantity name: half-life (min)

molecule: COc1ccc(COC(=O)NC(C(=O)N[C@@H](Cc2ccccc2)C[C@H](O)[C@H](Cc2ccccc2)NC(=O)OCc2cccnc2)C(C)C)nc1 (stereo partly specified)
units: min
test value: 15
//
molecule: CC(C)c1nc(CCC(=O)NC(C(=O)N[C@@H](Cc2ccccc2)C[C@H](O)[C@H](Cc2ccccc2)NC(=O)OCc2cccnc2)C(C)C)cs1 (stereo partly specified)
units: min
test value: 16.8

[I] CC(C)C(NC(=O)N(C)Cc1csc(C2CC2)n1)C(=O)N[C@@H](Cc1ccccc1)[C@@H](O)C[C@H](Cc1ccccc1)NC(=O)OCc1cncs1 (stereo partly specified)
[II] CC(C)C(NC(=O)OCc1ccccn1)C(=O)N[C@@H](Cc1ccccc1)[C@@H](O)C[C@H](Cc1ccccc1)NC(=O)OCc1cccnc1 (stereo partly specified)
[III] CC(C)c1nc(COC(=O)NC(C(=O)N[C@@H](Cc2ccccc2)C[C@H](O)[C@H](Cc2ccccc2)NC(=O)OCc2cccnc2)C(C)C)co1 (stereo partly specified)
[IV] CCc1nc(CN(C)C(=O)NC(C(=O)N[C@@H](Cc2ccccc2)C[C@H](O)[C@H](Cc2ccccc2)NC(=O)OCc2cccnc2)C(C)C)cs1 (stereo partly specified)
Hey, quick one: sort these by half-life, largest value first please. A ranking is expressed here by listing the labels in the requested order.
II, IV, I, III
(II: 114 min, IV: 72 min, I: 31.8 min, III: 19.8 min)

[a] COCc1nc(CN(C)C(=O)NC(C(=O)N[C@@H](Cc2ccccc2)C[C@H](O)[C@H](Cc2ccccc2)NC(=O)OCc2cccnc2)C(C)C)cs1 (stereo partly specified)
[b] CC(C)c1nc(CN(C)C(=O)NC(C(=O)N[C@@H](Cc2ccccc2)C[C@H](O)[C@H](Cc2ccccc2)NC(=O)OCc2cnco2)C(C)C)cs1 (stereo partly specified)
Please state the entry with greater half-life among a and b . Please respond with the label that marks your chosen entry.
b
(b: 33.6 min, a: 23.4 min)
